pIC50 for assorted compounds
- tgt: unphosphorylated T315I Abl kinase domain (Mus musculus, UniProt P00520, T315I)
- Construct: purified and unphosphorylated T315I Abl kinase domain
- Sequence (P00520 242-493 T315I limits assumed): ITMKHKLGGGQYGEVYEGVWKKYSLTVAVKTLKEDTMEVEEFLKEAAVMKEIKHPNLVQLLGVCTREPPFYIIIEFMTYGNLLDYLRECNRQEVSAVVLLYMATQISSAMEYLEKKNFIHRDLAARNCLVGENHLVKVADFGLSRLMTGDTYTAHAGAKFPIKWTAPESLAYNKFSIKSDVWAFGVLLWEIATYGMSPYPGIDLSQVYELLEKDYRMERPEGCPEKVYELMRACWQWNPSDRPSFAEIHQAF
- measurement description: c-Abl T315I 0P bioassay (pyruvate kinase/lactate dehydrogenase coupled enzyme assay)
- experimental parameters: zero phosphorylation state (0P), 10 μM ATP, read-out: AbI T315I 0P IC50
pIC50: −log10 of the molar value.

>  <compound>
COc1ccccc1-c1n[nH]c2ncc(-c3cccc(C(C(=O)N(C)CCN(C)C)N(C)C)c3)cc12 (stereo not drawn)

>  <endpoint name>
pIC50

>  <result>
6.30 to 7.30

$$$$
>  <compound>
CN(C)C(=O)C(O)c1cncc(-c2cnc3[nH]cc(-c4cncnc4)c3c2)c1 (stereo not drawn)

>  <endpoint name>
pIC50

>  <result>
< 6.30

$$$$
>  <compound>
COc1ccccc1-c1c[nH]c2ncc(-c3cncc(C(O)C(=O)N(C)Cc4ccncc4)c3)cc12 (stereo not drawn)

>  <endpoint name>
pIC50

>  <result>
> 7.30

$$$$

QUERY: Under unphosphorylated T315I Abl kinase domain (Mus musculus, UniProt P00520, T315I): report pIC50 of COc1ccccc1-c1n[nH]c2ncc(-c3cccc(C(O)C(=O)N(C)CCC#N)c3)cc12 (stereo not drawn) .
RESULT: > 7.30

QUERY: Under unphosphorylated T315I Abl kinase domain (Mus musculus, UniProt P00520, T315I): report pIC50 of COc1ccccc1-c1n[nH]c2ncc(-c3cccc(C(O)C(=O)N4CCC(N(C)C)C4)c3)cc12 (stereo not drawn) .
RESULT: > 7.30

QUERY: Under unphosphorylated T315I Abl kinase domain (Mus musculus, UniProt P00520, T315I): report pIC50 of CN(C)C(=O)C(O)c1cncc(-c2cnc3[nH]cc(-c4ccn(-c5ccccc5)n4)c3c2)c1 (stereo not drawn) .
RESULT: 6.30 to 7.30

QUERY: Under unphosphorylated T315I Abl kinase domain (Mus musculus, UniProt P00520, T315I): report pIC50 of CN(C)C(=O)C(O)c1cncc(-c2cnc3[nH]cc(-c4cc(C(F)(F)F)nn4C)c3c2)c1 (stereo not drawn) .
RESULT: < 6.30

QUERY: Under unphosphorylated T315I Abl kinase domain (Mus musculus, UniProt P00520, T315I): report pIC50 of CN(C)C(=O)C(O)c1cncc(-c2cnc3[nH]cc(-c4ccc(F)cc4)c3c2)c1 (stereo not drawn) .
RESULT: > 7.30

QUERY: Under unphosphorylated T315I Abl kinase domain (Mus musculus, UniProt P00520, T315I): report pIC50 of COc1ccccc1-c1c[nH]c2ncc(-c3cccc(C(O)C(=O)N(C)Cc4ccnn4C)c3)cc12 (stereo not drawn) .
RESULT: > 7.30

----------
- tgt: Ba/F3 cells, ABL1 WT (Homo sapiens)
- Sequence (P00519 whole entry, change not shown): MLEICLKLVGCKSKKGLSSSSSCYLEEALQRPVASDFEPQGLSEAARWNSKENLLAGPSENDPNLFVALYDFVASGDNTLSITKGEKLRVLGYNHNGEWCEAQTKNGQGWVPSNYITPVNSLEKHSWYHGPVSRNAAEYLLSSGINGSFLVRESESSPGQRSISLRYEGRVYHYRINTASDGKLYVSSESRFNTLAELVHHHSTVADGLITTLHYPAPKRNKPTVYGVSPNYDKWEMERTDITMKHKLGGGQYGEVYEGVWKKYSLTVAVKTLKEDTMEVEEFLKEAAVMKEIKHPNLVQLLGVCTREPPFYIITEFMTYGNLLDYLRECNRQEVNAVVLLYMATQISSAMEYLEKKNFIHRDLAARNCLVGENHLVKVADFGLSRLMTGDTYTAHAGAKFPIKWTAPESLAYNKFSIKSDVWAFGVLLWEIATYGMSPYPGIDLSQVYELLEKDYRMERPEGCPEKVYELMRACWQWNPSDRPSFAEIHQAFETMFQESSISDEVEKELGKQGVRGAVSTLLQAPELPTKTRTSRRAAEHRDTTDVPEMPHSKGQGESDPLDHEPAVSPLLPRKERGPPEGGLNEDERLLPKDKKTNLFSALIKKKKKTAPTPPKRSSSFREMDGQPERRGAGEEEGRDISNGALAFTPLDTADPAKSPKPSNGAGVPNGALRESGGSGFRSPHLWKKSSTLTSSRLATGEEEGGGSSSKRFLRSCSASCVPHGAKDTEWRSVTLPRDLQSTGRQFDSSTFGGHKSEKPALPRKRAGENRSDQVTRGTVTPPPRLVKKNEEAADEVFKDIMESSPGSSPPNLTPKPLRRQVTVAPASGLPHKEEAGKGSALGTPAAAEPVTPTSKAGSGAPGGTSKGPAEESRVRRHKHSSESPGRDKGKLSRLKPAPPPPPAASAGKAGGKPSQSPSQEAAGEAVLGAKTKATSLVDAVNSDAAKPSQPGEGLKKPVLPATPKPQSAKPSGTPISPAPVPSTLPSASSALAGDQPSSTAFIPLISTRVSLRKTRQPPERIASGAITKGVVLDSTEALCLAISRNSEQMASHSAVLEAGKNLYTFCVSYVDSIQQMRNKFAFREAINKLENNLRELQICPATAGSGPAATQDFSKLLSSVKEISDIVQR
- measurement description: 96-well XTT cell survival assay, Ba/F3 ABL1 WT
- Format: cell-based
- experimental parameters: 72 hours, read-out: ABL1 WT XTT [Ba/F3] IC50
endpoint name: GI50

Illustrative cases are given below, each with its answer.
>  <molecule>
CN(C)C(=O)C(O)c1cncc(-c2cnc3[nH]cc(-c4ccnn4-c4ccccc4)c3c2)c1 (stereo not drawn)

>  <tgt>
Ba/F3 cells, ABL1 WT (Homo sapiens)

>  <GI50>
< 1000 nM

$$$$
>  <molecule>
CN(C)C(=O)C(O)c1cncc(-c2cnc3[nH]cc(-c4cncnc4)c3c2)c1 (stereo not drawn)

>  <tgt>
Ba/F3 cells, ABL1 WT (Homo sapiens)

>  <GI50>
> 1000 nM

$$$$
>  <molecule>
COc1ccccc1-c1n[nH]c2ncc(-c3cccc(C(O)CO)c3)cc12 (stereo not drawn)

>  <tgt>
Ba/F3 cells, ABL1 WT (Homo sapiens)

>  <GI50>
< 1000 nM

$$$$
>  <molecule>
COc1ccccc1-c1n[nH]c2ncc(-c3cccc(C(OC)C(=O)N(C)C)c3)cc12 (stereo not drawn)

>  <tgt>
Ba/F3 cells, ABL1 WT (Homo sapiens)

>  <GI50>
< 1000 nM

$$$$
>  <molecule>
COc1ccccc1-c1n[nH]c2ncc(-c3cccc(C(N)C(=O)N(C)CCN(C)C)c3)cc12 (stereo not drawn)

>  <tgt>
Ba/F3 cells, ABL1 WT (Homo sapiens)

>  <GI50>
> 1000 nM

$$$$
>  <molecule>
COc1ccccc1-c1c[nH]c2ncc(-c3cccc(C(CC(=O)N4CCC[C@@H]4CO)N4CCS(=O)(=O)CC4)c3)cc12 (stereo partly drawn)

>  <tgt>
Ba/F3 cells, ABL1 WT (Homo sapiens)

>  <GI50>
> 1000 nM

$$$$

QUERY: Item COc1ccccc1-c1n[nH]c2ncc(-c3cccc(C(=O)C(=O)N4CC(O)C4)c3)cc12 : provide GI50
RESULT: > 1000 nM

QUERY: Item CN(C)C(=O)C(O)c1cncc(-c2cnc3[nH]cc(-c4ccn[nH]4)c3c2)c1 (stereo not drawn) : provide GI50
RESULT: > 1000 nM

QUERY: Item COc1ccccc1-c1n[nH]c2ncc(-c3cccc(C(O)c4ncccc4F)c3)cc12 (stereo not drawn) : provide GI50
RESULT: < 1000 nM
